Test system: IDH2 R140Q (Homo sapiens, UniProt P48735, R140Q)
Sequence (P48735 40-452 R140Q): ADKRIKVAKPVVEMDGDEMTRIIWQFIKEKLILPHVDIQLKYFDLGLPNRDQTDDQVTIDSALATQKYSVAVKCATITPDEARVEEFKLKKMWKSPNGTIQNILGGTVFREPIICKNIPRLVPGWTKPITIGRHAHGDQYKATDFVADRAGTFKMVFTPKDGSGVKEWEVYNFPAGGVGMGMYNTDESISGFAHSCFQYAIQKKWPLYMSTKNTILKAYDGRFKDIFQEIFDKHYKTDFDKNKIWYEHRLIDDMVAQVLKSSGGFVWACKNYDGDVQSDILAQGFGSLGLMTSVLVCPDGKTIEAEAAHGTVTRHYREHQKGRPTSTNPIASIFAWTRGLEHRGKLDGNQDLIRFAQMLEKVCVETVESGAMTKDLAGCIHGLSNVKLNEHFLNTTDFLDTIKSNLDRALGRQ
Experiment notes: IDH2 R140Q enzymatic assay (cofactor depletion, similar format)
Assay type: biochemical
Run conditions: read-out: Enz R140Q
Measurement kind: IC50

- Molecule: "Fc1ccc(Nc2nc(NC3C4COCC43)nc(-c3cccc(Cl)n3)n2)cn1 (centres unmarked)"
  Measurement kind: "IC50"
  Result: "100 to 1000 nM"
- Molecule: "CC(C)Nc1nc(Nc2cncc(C(F)(F)F)c2)nc(-c2nccc(C(F)(F)F)n2)n1"
  Measurement kind: "IC50"
  Result: "1000 to 10000 nM"
- Molecule: "CC(Nc1nc(Nc2ccncc2)nc(-c2ccccc2)n1)C1CC1 (centres unmarked)"
  Measurement kind: "IC50"
  Result: "< 100 nM"
- Molecule: "c1ccc(Nc2nc(NC3COC3)nc(-c3ccccc3)n2)cc1"
  Measurement kind: "IC50"
  Result: "< 100 nM"
- Molecule: "CC(C)Nc1nc(Nc2cncc(C#N)c2)nc(-c2cccc(Cl)n2)n1"
  Measurement kind: "IC50"
  Result: "100 to 1000 nM"
- Molecule: "CC(C)Nc1nc(Nc2cncc(F)c2)nc(-c2cccc(N)n2)n1"
  Measurement kind: "IC50"
  Result: "100 to 1000 nM"
- Molecule: "CC(C)Nc1nc(Cc2ccccc2)nc(Nc2ccccc2)n1"
  Measurement kind: "IC50"
  Result: "100 to 1000 nM"
- Molecule: "OCCNc1nc(Nc2ccccc2)nc(-c2ccccc2)n1"
  Measurement kind: "IC50"
  Result: "100 to 1000 nM"
- Molecule: "CC(C)(O)CNc1nc(Nc2cncc(C(F)(F)F)c2)nc(-c2ccccc2F)n1"
  Measurement kind: "IC50"
  Result: "100 to 1000 nM"
- Molecule: "CC(C)Nc1nc(Nc2cccc(S(=O)(=O)NCC3CC3)c2)nc(-c2cccc(Cl)n2)n1"
  Measurement kind: "IC50"
  Result: "100 to 1000 nM"
- Molecule: "CC(C)Nc1nc(NC2CCOCC2)nc(-c2ccccc2)n1"
  Measurement kind: "IC50"
  Result: "100 to 1000 nM"
- Molecule: "COc1ccc(F)c(-c2nc(Nc3ccnc(C(F)(F)F)c3)nc(NC3COC3)n2)c1"
  Measurement kind: "IC50"
  Result: "100 to 1000 nM"
- Molecule: "CC(C)Nc1nc(Nc2cc(F)cc(F)c2)nc(-c2cc(Cl)cc(N)n2)n1"
  Measurement kind: "IC50"
  Result: "100 to 1000 nM"
- Molecule: "CC(C)Nc1nc(Nc2ccnc(C(F)(F)F)c2)nc(-c2cccc(CO)c2)n1"
  Measurement kind: "IC50"
  Result: "100 to 1000 nM"
- Molecule: "CC(C)(O)CNc1nc(Nc2cnc(F)c(Cl)c2)nc(-c2cccc(C(F)(F)F)n2)n1"
  Measurement kind: "IC50"
  Result: "100 to 1000 nM"
- Molecule: "CC(C)Nc1nc(Nc2ccnc(C(F)(F)F)c2)nc(-c2cccc(C(O)C(F)(F)F)c2)n1 (centres unmarked)"
  Measurement kind: "IC50"
  Result: "100 to 1000 nM"
- Molecule: "CC(C)C(=O)Nc1nc(Nc2ccccc2)nc(-c2ccccc2)n1"
  Measurement kind: "IC50"
  Result: "< 100 nM"
- Molecule: "CC(C)Nc1nc(Nc2cc(F)cc(F)c2)nc(-c2cccc(C(F)(F)F)n2)n1"
  Measurement kind: "IC50"
  Result: "100 to 1000 nM"
- Molecule: "CC(C)Nc1nc(Nc2cccc(S(=O)(=O)NCC(F)(F)F)c2)nc(-c2cccc(Cl)n2)n1"
  Measurement kind: "IC50"
  Result: "100 to 1000 nM"
- Molecule: "CC1CC1Nc1nc(Nc2ccnc(C(F)(F)F)c2)nc(-c2ccccn2)n1 (centres unmarked)"
  Measurement kind: "IC50"
  Result: "100 to 1000 nM"
- Molecule: "O=C1C=C(Nc2nc(Nc3ccccc3)nc(-c3ccccc3)n2)CCC1"
  Measurement kind: "IC50"
  Result: "100 to 1000 nM"
- Molecule: "O=C(Nc1nc(Nc2ccccc2)nc(-c2ccccc2)n1)OCC1CC1"
  Measurement kind: "IC50"
  Result: "< 100 nM"
- Molecule: "CC1(CNc2nc(Nc3ccnc(C(F)(F)F)c3)nc(-c3cccc(C(F)(F)F)n3)n2)CCCO1 (centres unmarked)"
  Measurement kind: "IC50"
  Result: "100 to 1000 nM"

###

Test system: U87MG pLVX-IDH2 R140Q-neo cells
Experiment notes: U87MG pLVX-IDH2 R140Q-neo cell based assay, 2-HG in media by LC-MS at 48 hours
Run conditions: Homo sapiens, U-87 MG

- Compound: "CC1CC1Nc1nc(Nc2ccncc2)nc(-c2ccccc2)n1 (stereo not drawn) [Compound 219]"
  Test system: "U87MG pLVX-IDH2 R140Q-neo cells"
  IC50: "< 100 nM"
- Compound: "CC(C)(O)CNc1nc(Nc2ccnc(C(F)(F)F)c2)nc(-c2cccc(O)c2)n1 [Compound 641]"
  Test system: "U87MG pLVX-IDH2 R140Q-neo cells"
  IC50: "< 100 nM"
- Compound: "CC(C)Nc1nc(Nc2ccnc(C(C)(C)O)c2)nc(-c2cccc(C(F)(F)F)n2)n1 [Compound 496]"
  Test system: "U87MG pLVX-IDH2 R140Q-neo cells"
  IC50: "< 100 nM"
- Compound: "COC(C)CNc1nc(Nc2ccnc(C(F)(F)F)c2)nc(-c2cccc(C(F)(F)F)n2)n1 (stereo not drawn) [Compound 524]"
  Test system: "U87MG pLVX-IDH2 R140Q-neo cells"
  IC50: "< 100 nM"
- Compound: "CCC(C)Nc1nc(Nc2ccncc2)nc(-c2ccccc2)n1 (stereo not drawn) [Compound 186]"
  Test system: "U87MG pLVX-IDH2 R140Q-neo cells"
  IC50: "< 100 nM"
- Compound: "Fc1ccc(Nc2nc(NC3COC3)nc(-c3cccc(Cl)n3)n2)cn1 [Compound 410]"
  Test system: "U87MG pLVX-IDH2 R140Q-neo cells"
  IC50: "100 to 1000 nM"
- Compound: "CC(C)Nc1nc(Nc2ccccc2)nc(-c2cccc(C#N)c2)n1 [Compound 128]"
  Test system: "U87MG pLVX-IDH2 R140Q-neo cells"
  IC50: "1000 to 10000 nM"
- Compound: "CC(C)Nc1nc(Nc2ccccc2)nc(-c2cccc(S(C)(=O)=O)c2)n1 [Compound 151]"
  Test system: "U87MG pLVX-IDH2 R140Q-neo cells"
  IC50: "100 to 1000 nM"
- Compound: "c1ccc(Nc2nc(NC3CCOCC3)nc(-c3ccccc3)n2)cc1 [Compound 168]"
  Test system: "U87MG pLVX-IDH2 R140Q-neo cells"
  IC50: "< 100 nM"

###

Test system: IDH2 R172K (Homo sapiens, UniProt P48735, R172K)
Experiment notes: IDH2 R172K enzymatic assay (NADPH cofactor depletion, diaphorase/resazurin readout)
Type: biochemical
Run conditions: read-out: Enz R172K
Item-by-item account of IC50

- Molecule: "Fc1ccccc1-c1nc(Nc2ccnc(C(F)(F)F)c2)nc(NC2COC2)n1 [Compound 627]"
  Test system: "IDH2 R172K (Homo sapiens, UniProt P48735, R172K)"
  IC50: "< 100 nM"
- Molecule: "CCCn1cc(Nc2nc(NC(C)C)nc(-c3cccc(C(F)(F)F)n3)n2)cn1 [Compound 555]"
  Test system: "IDH2 R172K (Homo sapiens, UniProt P48735, R172K)"
  IC50: "1000 to 10000 nM"
- Molecule: "CC(F)(F)c1cccc(-c2nc(NCC3CC3)nc(Nc3ccnc(C(C)(C)C#N)c3)n2)n1 [Compound 618]"
  Test system: "IDH2 R172K (Homo sapiens, UniProt P48735, R172K)"
  IC50: "< 100 nM"
- Molecule: "CC(C)Nc1nc(Nc2ccccc2)nc(-c2cccc(S(C)(=O)=O)c2)n1 [Compound 151]"
  Test system: "IDH2 R172K (Homo sapiens, UniProt P48735, R172K)"
  IC50: "100 to 1000 nM"
- Molecule: "CC(C)Nc1nc(Nc2cccc(CC#N)c2)nc(-c2ccccc2)n1 [Compound 198]"
  Test system: "IDH2 R172K (Homo sapiens, UniProt P48735, R172K)"
  IC50: "100 to 1000 nM"
- Molecule: "CC(C)(C)Nc1nc(Nc2cc(F)cc(S(C)(=O)=O)c2)nc(-c2cccc(C(F)(F)F)n2)n1 [Compound 592]"
  Test system: "IDH2 R172K (Homo sapiens, UniProt P48735, R172K)"
  IC50: "100 to 1000 nM"
- Molecule: "CC(C)(CO)CNc1nc(Nc2ccnc(Cl)c2)nc(-c2ccccc2)n1 [Compound 261]"
  Test system: "IDH2 R172K (Homo sapiens, UniProt P48735, R172K)"
  IC50: "100 to 1000 nM"
- Molecule: "CCNc1cc(Nc2nc(NC(C)C)nc(-c3ccccc3)n2)ccn1 [Compound 224]"
  Test system: "IDH2 R172K (Homo sapiens, UniProt P48735, R172K)"
  IC50: "100 to 1000 nM"
- Molecule: "N#CC1(c2cc(Nc3nc(NCC4CC4)nc(-c4cccc(C(F)(F)F)n4)n3)ccn2)CC1 [Compound 617]"
  Test system: "IDH2 R172K (Homo sapiens, UniProt P48735, R172K)"
  IC50: "< 100 nM"
- Molecule: "c1ccc(Nc2nc(NC3CCCCC3)nc(-c3ccccc3)n2)cc1 [Compound 113]"
  Test system: "IDH2 R172K (Homo sapiens, UniProt P48735, R172K)"
  IC50: "100 to 1000 nM"
- Molecule: "FC(F)(F)CCNc1nc(Nc2ccncc2)nc(-c2ccccc2)n1 [Compound 263]"
  Test system: "IDH2 R172K (Homo sapiens, UniProt P48735, R172K)"
  IC50: "1000 to 10000 nM"
- Molecule: "CC(C)Nc1nc(Nc2ccnc(C(F)(F)F)c2)nc(-c2cc(O)cc(CO)c2)n1 [Compound 665]"
  Test system: "IDH2 R172K (Homo sapiens, UniProt P48735, R172K)"
  IC50: "< 100 nM"
- Molecule: "c1ccc(Nc2nc(NC3CCCOC3)nc(-c3ccccc3)n2)cc1 (centres unmarked) [Compound 268]"
  Test system: "IDH2 R172K (Homo sapiens, UniProt P48735, R172K)"
  IC50: "100 to 1000 nM"
- Molecule: "CC1(Nc2nc(Nc3ccnc(C4CC4)c3)nc(-c3cccc(C(F)(F)F)n3)n2)CC1 [Compound 565]"
  Test system: "IDH2 R172K (Homo sapiens, UniProt P48735, R172K)"
  IC50: "< 100 nM"
- Molecule: "CC(C)Nc1nc(Nc2ccccc2)nc(-c2cccc(C#N)c2)n1 [Compound 128]"
  Test system: "IDH2 R172K (Homo sapiens, UniProt P48735, R172K)"
  IC50: "1000 to 10000 nM"
- Molecule: "Fc1ccc(Nc2nc(NC3[C@H]4COC[C@@H]34)nc(-c3ccccc3F)n2)cn1 (some centres unmarked) [Compound 637]"
  Test system: "IDH2 R172K (Homo sapiens, UniProt P48735, R172K)"
  IC50: "100 to 1000 nM"
- Molecule: "COc1ccccc1-c1nc(Nc2ccccc2)nc(NC(C)C)n1 [Compound 120]"
  Test system: "IDH2 R172K (Homo sapiens, UniProt P48735, R172K)"
  IC50: "100 to 1000 nM"
- Molecule: "CC(C)Nc1nc(Nc2ccnc(F)c2)nc(-c2nccc(C(F)(F)F)n2)n1 [Compound 538]"
  Test system: "IDH2 R172K (Homo sapiens, UniProt P48735, R172K)"
  IC50: "100 to 1000 nM"
- Molecule: "CC(C)(C)COC(=O)Nc1nc(Nc2ccccc2)nc(-c2ccccc2)n1 [Compound 208]"
  Test system: "IDH2 R172K (Homo sapiens, UniProt P48735, R172K)"
  IC50: "100 to 1000 nM"
- Molecule: "COC(=O)N1CCC(Nc2nc(Nc3ccnc(C(F)(F)F)c3)nc(-c3cccc(C(F)(F)F)n3)n2)CC1 [Compound 577]"
  Test system: "IDH2 R172K (Homo sapiens, UniProt P48735, R172K)"
  IC50: "100 to 1000 nM"
- Molecule: "CC(C)(O)CNc1nc(Nc2cc(F)cc(F)c2)nc(-c2cccc(C(C)(F)F)n2)n1 [Compound 560]"
  Test system: "IDH2 R172K (Homo sapiens, UniProt P48735, R172K)"
  IC50: "< 100 nM"
- Molecule: "CC(F)(F)c1cccc(-c2nc(NCC3CC3)nc(Nc3ccnc(C(F)(F)F)c3)n2)n1 [Compound 595]"
  Test system: "IDH2 R172K (Homo sapiens, UniProt P48735, R172K)"
  IC50: "< 100 nM"
- Molecule: "CC(C)(C)Nc1nc(Nc2cc(F)cc(S(C)(=O)=O)c2)nc(-c2cccc(C(C)(F)F)n2)n1 [Compound 616]"
  Test system: "IDH2 R172K (Homo sapiens, UniProt P48735, R172K)"
  IC50: "< 100 nM"
- Molecule: "CC1CC1Nc1nc(Nc2ccncc2)nc(-c2ccccc2)n1 (centres unmarked) [Compound 219]"
  Test system: "IDH2 R172K (Homo sapiens, UniProt P48735, R172K)"
  IC50: "100 to 1000 nM"
- Molecule: "CC(C)Nc1nc(NC(=O)Cc2ccccc2)nc(-c2ccccc2)n1 [Compound 170]"
  Test system: "IDH2 R172K (Homo sapiens, UniProt P48735, R172K)"
  IC50: "100 to 1000 nM"
- Molecule: "CC(C)Nc1nc(Nc2ccc(S(C)(=O)=O)cc2)nc(-c2ccccc2)n1 [Compound 452]"
  Test system: "IDH2 R172K (Homo sapiens, UniProt P48735, R172K)"
  IC50: "> 10000 nM"
